TARGET_OR_SYSTEM: delta-5-desaturase (Rattus norvegicus)
Construct: the microsomal fraction of a rat river (10 μl), which had been diluted to 3 mg/ml; from tissue; host or cells: rat liver microsomal fraction
ASSAY_PROCEDURE: Inhibitory activity on delta-5-desaturase (rat liver microsomal fraction, 14C-eicosatrienoic acid, TLC)
Type: biochemical
SETTINGS: test compound at 10 μM, room temperature, 120 minutes
PROPERTY_MEASURED: inhibition at 10 µM (%)

Recorded inhibition at 10 µM for `CC(C)Sc1nc2c(c(=O)n1-c1ccc(OCC(F)(F)F)cc1)CC(=O)N2` , please? 96

Moving on to the next compound: `COCCOCCCSc1nc2cc[nH]c2c(=O)n1-c1ccc(OCC2CC2)cc1` 100

Moving on to the next compound: `CC(C)Sc1nc2[nH]ccc2c(=O)n1-c1ccc(OCC(F)(F)F)cc1` 97

Moving on to the next compound: `N#CCCCCCSc1nc2cc[nH]c2c(=O)n1-c1ccc(OCC(F)(F)F)cc1` 100

Moving on to the next compound: `O=c1c2[nH]ccc2nc(SCCCCO)n1-c1ccc(OCC(F)(F)F)cc1` 102

Moving on to the next compound: `CCOCCCSc1nc2c(c(=O)n1-c1ccc(OCC(F)(F)F)cc1)CC(=O)N2` 94

Moving on to the next compound: `N#CCCNC(=O)CCCSc1nc2c(C3CC3)c[nH]c2c(=O)n1-c1ccc(OCC(F)(F)F)cc1` 101

Moving on to the next compound: `CC(C)Oc1nc2[nH]ccc2c(=O)n1-c1ccc(OCC(F)(F)F)c(F)c1` 103

Moving on to the next compound: `O=c1c2cc[nH]c2nc(OC2CCC2)n1-c1ccc(OCC(F)(F)F)cc1` 103

Moving on to the next compound: `O=c1c2[nH]ccc2nc(SCCCOC2CCOCC2)n1-c1ccc(OCC2CC2)cc1` 101

Moving on to the next compound: `CCCOc1nc2[nH]ccc2c(=O)n1-c1ccc(OCC(F)(F)F)cc1` 99

Moving on to the next compound: `CCOc1ccc(-n2c(SCCCS(=O)(=O)NCCC#N)nc3cc[nH]c3c2=O)cc1` 102

Moving on to the next compound: `N#CCCNC(=O)CCCSc1nc2cc[nH]c2c(=O)n1-c1ccc(OCCC(F)(F)F)cc1` 99

Moving on to the next compound: `CSc1nc2cc[nH]c2c(=O)n1-c1ccc(OCC(F)(F)F)cc1` 100

Moving on to the next compound: `CCSc1nc2[nH]c(Cl)cc2c(=O)n1-c1ccc(OCC(F)(F)F)cc1` 101

Moving on to the next compound: `O=C1Cc2c(nc(SCC3CC3)n(-c3ccc(OCC(F)(F)F)c(F)c3)c2=O)N1` 101

Moving on to the next compound: `O=C1Cc2c(nc(OCC(F)(F)F)n(-c3ccc(OCC(F)(F)F)c(F)c3)c2=O)N1` 98

Moving on to the next compound: `N#CCCNC(=O)CCCSc1nc2[nH]ccc2c(=O)n1-c1ccc(OCC2CCC2)cc1` 99

Moving on to the next compound: `O=c1c2cc[nH]c2nc(SCC(F)(F)F)n1-c1ccc(OCC(F)(F)F)cc1` 100

Moving on to the next compound: `CCSc1nc2cc[nH]c2c(=O)n1-c1ccc(OCC2CC2)cc1` 98

Moving on to the next compound: `N#CCCNC(=O)CCCSc1nc2[nH]ccc2c(=O)n1-c1ccc(OCC2CC2)cc1` 97

Moving on to the next compound: `COCCOCCCSc1nc2cc[nH]c2c(=O)n1-c1ccc(OCC(F)(F)F)cc1` 101

Moving on to the next compound: `O=c1c2[nH]ccc2nc(SCCO)n1-c1ccc(OCC(F)(F)F)cc1` 102

Moving on to the next compound: `CCCSc1nc2c(c(=O)n1-c1ccc(OCC(F)(F)F)cc1)CC(=O)N2` 102

Moving on to the next compound: `O=c1c2cc[nH]c2nc(OCC(F)(F)C(F)(F)F)n1-c1ccc(OCC(F)(F)F)cc1` 101

Moving on to the next compound: `CCSc1nc2[nH]ccc2c(=O)n1-c1ccc(OCC(F)F)cc1` 101

Moving on to the next compound: `O=C1Cc2c(nc(Sc3ccc(F)cc3)n(-c3ccc(OCC(F)(F)F)cc3)c2=O)N1` 101

Moving on to the next compound: `CCOc1ccc(-n2c(SCCCC(=O)NCC#N)nc3cc[nH]c3c2=O)cc1` 98

Moving on to the next compound: `N#CCSc1nc2c(c(=O)n1-c1ccc(OCC(F)(F)F)cc1)CC(=O)N2` 97

Moving on to the next compound: `COCCOCCCSc1nc2c(c(=O)n1-c1ccc(OCC(F)(F)F)cc1)CC(=O)N2` 100

Moving on to the next compound: `CC(C)(C)COc1ccc(-n2c(SCCCC(=O)NCCC#N)nc3cc[nH]c3c2=O)cc1` 103

Moving on to the next compound: `O=c1c2cc[nH]c2nc(OCC(F)(F)F)n1-c1ccc(OCC(F)(F)F)cc1` 99

Moving on to the next compound: `Cc1c[nH]c2c(=O)n(-c3ccc(OCC(F)(F)F)cc3)c(SCCCC(=O)NCCC#N)nc12` 99

Moving on to the next compound: `CC1(COc2ccc(-n3c(SCCCC(=O)NCCC#N)nc4cc[nH]c4c3=O)cc2)CC1` 101

---

TARGET_OR_SYSTEM: delta-5-desaturase (Rattus norvegicus, UniProt Q920R3)
Construct: the microsomal fraction of a rat river (10 μl), which had been diluted to 3 mg/ml; from tissue; host or cells: rat liver microsomal fraction
Sequence (Q920R3 whole entry): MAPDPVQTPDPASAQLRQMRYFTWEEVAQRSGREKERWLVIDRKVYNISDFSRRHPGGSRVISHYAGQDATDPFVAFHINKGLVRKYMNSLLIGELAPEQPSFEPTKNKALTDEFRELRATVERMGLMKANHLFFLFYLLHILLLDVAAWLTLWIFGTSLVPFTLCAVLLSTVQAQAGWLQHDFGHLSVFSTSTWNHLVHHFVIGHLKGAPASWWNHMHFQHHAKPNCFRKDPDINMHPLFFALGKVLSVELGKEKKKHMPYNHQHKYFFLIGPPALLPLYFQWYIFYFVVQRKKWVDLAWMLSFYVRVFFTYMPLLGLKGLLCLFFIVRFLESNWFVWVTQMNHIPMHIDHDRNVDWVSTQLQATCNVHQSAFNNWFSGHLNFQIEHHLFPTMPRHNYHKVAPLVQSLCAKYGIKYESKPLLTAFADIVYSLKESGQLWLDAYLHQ
ASSAY_PROCEDURE: Inhibitory activity on delta-5-desaturase (rat liver microsomal fraction, 14C-eicosatrienoic acid, TLC)
Assay type: biochemical
SETTINGS: test compound at 10 μM, room temperature, 120 minutes
PROPERTY_MEASURED: inhibition at 10 µM (%)

Recorded inhibition at 10 µM for `CCOCCCSc1nc2[nH]ccc2c(=O)n1-c1ccc(OCC(F)(F)F)cc1` , please? 100

Moving on to the next molecule: `O=c1c2cc[nH]c2nc(OCC2CC2)n1-c1ccc(OCC(F)(F)F)cc1` 102

Moving on to the next molecule: `CSc1nc2[nH]ccc2c(=O)n1-c1ccc(OCC(F)(F)F)cc1` 98

Moving on to the next molecule: `CC1(O)CCN(C(=O)CCCSc2nc3cc[nH]c3c(=O)n2-c2ccc(OCC(F)(F)F)cc2)CC1` 100

Moving on to the next molecule: `CCSc1nc2cc[nH]c2c(=O)n1-c1ccc(OCC(F)(F)F)cc1` 100

Moving on to the next molecule: N#CCCNC(=O)CCCSc1nc2cc[nH]c2c(=O)n1-c1ccc(OCC2CC2(F)F)cc1 (centres unmarked) 100

Moving on to the next molecule: `COCCOCCCSc1nc2[nH]ccc2c(=O)n1-c1ccc(OCC(F)(F)F)cc1` 101

Moving on to the next molecule: `CS(=O)(=O)CCCSc1nc2cc[nH]c2c(=O)n1-c1ccc(OCC(F)(F)F)cc1` 98

---

TARGET_OR_SYSTEM: delta-5-desaturase (Rattus norvegicus)
Construct: the microsomal fraction of a rat river (10 μl), which had been diluted to 3 mg/ml; from tissue; host or cells: rat liver microsomal fraction
ASSAY_PROCEDURE: Inhibitory activity on delta-5-desaturase (rat liver microsomal fraction, 14C-eicosatrienoic acid, TLC)
Format: biochemical
SETTINGS: test compound at 10 μM, room temperature, 120 minutes
PROPERTY_MEASURED: inhibition at 10 µM (%)

Recorded inhibition at 10 µM for O=c1c2[nH]ccc2nc(SCCCOC2CCOCC2)n1-c1ccc(OCC(F)(F)F)cc1 [Example 158] , please? 99

Moving on to the next compound: CCSc1nc2[nH]ccc2c(=O)n1-c1ccc(OC(F)(F)F)cc1 [Example 254] 98

Moving on to the next compound: O=c1c2cc[nH]c2nc(SCC(O)COC2CCOCC2)n1-c1ccc(OCC(F)(F)F)cc1 (centres unmarked) [Example 219] 102

Moving on to the next compound: O=C1Cc2c(nc(OCCC3CC3)n(-c3ccc(OCC(F)(F)F)cc3)c2=O)N1 [Example 319] 104

Moving on to the next compound: CCOc1ccc(-n2c(SCCCC(=O)N(C)CCC#N)nc3cc[nH]c3c2=O)cc1 [Example 66] 101

Moving on to the next compound: O=c1c2cc[nH]c2nc(SC(F)F)n1-c1ccc(OCC(F)(F)F)cc1 [Example 223] 103

Moving on to the next compound: CC(C)(O)CSc1nc2c(c(=O)n1-c1ccc(OCC(F)(F)F)cc1)CC(=O)N2 [Example 315] 99

Moving on to the next compound: CCSc1nc2c(c(=O)n1-c1ccc(OCC(F)(F)C(F)(F)F)cc1)CC(=O)N2 [Example 269] 99

Moving on to the next compound: CCOCCOCCSc1nc2cc[nH]c2c(=O)n1-c1ccc(OCC2CC2)c(Cl)c1 [Example 163] 99

Moving on to the next compound: CC(C)Oc1nc2[nH]ccc2c(=O)n1-c1ccc(OCC(F)(F)F)cc1 [Example 221] 104

Moving on to the next compound: CCOCCCSc1nc2cc[nH]c2c(=O)n1-c1ccc(OCC2CC2)cc1 [Example 139] 101

Moving on to the next compound: O=C1Cc2c(nc(SCC(F)(F)F)n(-c3ccc(OCC(F)(F)F)cc3)c2=O)N1 [Example 298] 101

Moving on to the next compound: CS(=O)(=O)CCCSc1nc2cc[nH]c2c(=O)n1-c1ccc(OCC2CC2)cc1 [Example 154] 99

Moving on to the next compound: O=c1c2[nH]ccc2nc(SCCOC2CCOCC2)n1-c1ccc(OCC(F)(F)F)cc1 [Example 159] 99

Moving on to the next compound: O=C1Cc2c(nc(Oc3ccc(F)cc3)n(-c3ccc(OCC(F)(F)C(F)(F)F)cc3)c2=O)N1 [Example 311] 98

Moving on to the next compound: NS(=O)(=O)CCCSc1nc2cc[nH]c2c(=O)n1-c1ccc(OCC(F)(F)F)cc1 [Example 120] 101

Moving on to the next compound: O=C(CCCSc1nc2cc[nH]c2c(=O)n1-c1ccc(OCC(F)(F)F)cc1)N1CCS(=O)(=O)CC1 [Example 135] 100
